For each of the compounds below, state its %Inh.
# System: FLT3-autoinhibited
# Condition Summary: concentration: 1 μM,replicates: in singlicate; n = 1;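 note: KINOMEscan kinase panel screen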
Record the result as number plus unit.

{"Compound": "O=C(NCCCN1CCOC1=O)c1cnc(NCc2cc(Cl)ccc2Cl)nc1NC1CCCC1", "Experimental System": "FLT3-autoinhibited", "%Inh": "0%"}
{"Compound": "Cl.Cl.Nc1nc(-c2ccc3c(N)n[nH]c3c2)cc(N2CCCC(NC(=O)c3ccccc3)C2)n1 (stereo not drawn)", "Experimental System": "FLT3-autoinhibited", "%Inh": "2%"}

# batch: return %Inh for each of the 3 compounds below
1. Cc1cc2cn[nH]c2cc1-c1cccc2c(N)c(C(N)=O)nnc12
2. CCn1c(-c2nonc2N)nc2c(C#CC(C)(C)O)nc(OCCN)cc21.Cl.Cl
3. Cc1n[nH]c2ccc(-c3cc(OC[C@@H](N)Cc4ccccc4)cnc3-c3ccoc3)cc12.O=C(O)C(F)(F)F.O=C(O)C(F)(F)F

**Result**
1: 19%; 2: 0%; 3: 0%

# batch: return %Inh for each of the 3 compounds below
1. Cc1cc(C(=O)Nc2ccc(Oc3ccc4nc(NC(=O)C5CC5)cn4n3)cc2)nn1-c1ccccc1
2. O=C(NCCNc1ccnc(NCc2ccc(F)cc2)n1)c1cc2ccccc2s1
3. Cc1occc1-c1nc(N)c(OC[C@@H](N)Cc2c[nH]c3ccccc23)cc1-c1cc2c(C)n[nH]c2cn1

**Result**
1: 18%; 2: 0%; 3: 0%

# batch: return %Inh for each of the 2 compounds below
1. NC(=O)c1cc(-c2ccccc2)cc2c(C3CCNCC3)c[nH]c12
2. C[C@@H]1CCN(C(=O)CC#N)C[C@@H]1N(C)c1ncnc2[nH]ccc12

**Result**
["25%", "0%"]

# batch: return %Inh for each of the 4 compounds below
1. C[C@H]1Oc2cc(cnc2N)-c2c(nn(C)c2C#N)CN(C)C(=O)c2ccc(F)cc21
2. CN(C)CC(O)COc1ccc(Nc2nccc(-c3cnn4nc(N5CCOCC5)ccc34)n2)cc1 (stereo not drawn)
3. COc1ccc(C[C@@H](CN)NC(=O)c2cc(Br)c(-c3ccnc4[nH]ccc34)s2)cc1.Cl.Cl
4. Cl.Oc1cc(-c2nc(-c3ccccc3)[nH]c2-c2ccncc2)ccc1Cl

**Result**
["0%", "40%", "42%", "0%"]

* * *

# Tested on: CASK
# Condition Summary: concentration: 1 μM,replicates: in singlicate; n = 1
Binned %Inh; ranges: low interval = under 10%, middle interval = from 10% up to 30%, high interval = 30% and over

Consider the worked cases shown below.
{"Molecule": "CN(C)CCOc1ccc(-c2cc(-c3c[nH]nc3-c3ccccn3)ccn2)cc1", "Classification": "middle interval"}
{"Molecule": "C=CC(=O)Nc1cc2c(Nc3ccc(F)c(Cl)c3)ncnc2cc1OCCCN1CCOCC1", "Classification": "low interval"}
{"Molecule": "Cc1ccc(-n2nc(C(C)(C)C)cc2NC(=O)Nc2ccc(OCCN3CCOCC3)c3ccccc23)cc1", "Classification": "middle interval"}
{"Molecule": "CC(C)Nc1cc(-c2ccc3c(N)n[nH]c3c2)nc(N)n1", "Classification": "middle interval"}
{"Molecule": "C[C@@H]1CCN(C(=O)CC#N)C[C@@H]1N(C)c1ncnc2[nH]ccc12", "Classification": "low interval"}
{"Molecule": "CCN(CC)CCCCNc1ncc2cc(-c3c(Cl)cccc3Cl)c(NC(=O)NC(C)(C)C)nc2n1", "Classification": "low interval"}
{"Molecule": "Cl.Cl.Nc1nc(-c2ccc3c(N)n[nH]c3c2)cc(N2CCCC(NC(=O)c3ccccc3)C2)n1 (centres unmarked)", "Classification": "middle interval"}
{"Molecule": "COc1ccc(C[C@@H](CN)NC(=O)c2cc(Br)c(-c3ccnc4[nH]ccc34)s2)cc1.Cl.Cl", "Classification": "high interval"}
{"Molecule": "Cl.Cl.NC[C@H](CC1CCCCC1)NC(=O)c1cc(Br)c(-c2ccnc3[nH]ccc23)s1", "Classification": "high interval"}

Next up:
**Query** Categorize the following entry: `O=C(NCCNc1ccnc(NCc2ccc(F)cc2)n1)c1cc2ccccc2s1`
**Result** high interval
